target: HLA-A*02:50; experiment: IEDB peptide-MHC binding, purified MHC/competitive/fluorescence; filed as Kd, often an IC50 or EC50 that approximates it; bounds were set here for any values at or beyond the usual limits of such assays; settings: source organism: Salmonella enterica subsp. enterica serovar Typhi

{"sequence.entry": "AMMWRIAQL", "system.name": "HLA-A*02:50", "Kd": "≤ 0.1 nM"}

====

biological target: HLA-B*51:01; experiment: IEDB peptide-MHC binding, purified MHC/competitive/fluorescence; filed as Kd, often an IC50 or EC50 that approximates it; bounds were set here for any values at or beyond the usual limits of such assays; conditions: source organism: Orthohantavirus tulaense
metric: Kd

{"sequence.entry": "AESICSYWL", "metric": "Kd", "data.value": "≥ 20 µM"}

====

biological target: HLA-B*18:01; assay: IEDB peptide-MHC binding, purified MHC/direct/fluorescence; filed as Kd, often an IC50 or EC50 that approximates it; bounds were set here for any values at or beyond the usual limits of such assays; conditions: source organism: Entamoeba histolytica HM-1:IMSS

{"sequence.entry": "YEYVLIGIL", "Kd (nM)": 4}

====

molecular target: HLA-B*35:01; experiment: IEDB peptide-MHC binding, purified MHC/direct/fluorescence; filed as Kd, often an IC50 or EC50 that approximates it; bounds were set here for any values at or beyond the usual limits of such assays; details: source organism: Vibrio cholerae
pKd: −log10 of the molar value.

{"sequence.entry": "GEHWLGRIW", "pKd": "≤ 5.00"}

====

target: HLA-B*18:01; assay: IEDB peptide-MHC binding, purified MHC/competitive/fluorescence; filed as Kd, often an IC50 or EC50 that approximates it; bounds were set here for any values at or beyond the usual limits of such assays; conditions: source organism: Streptococcus pneumoniae TIGR4
pKd: −log10 of the molar value.

{"sequence.entry": "YQVEGATRV", "pKd": "≤ 4.70"}

====

target: HLA-A*24:02; assay: IEDB peptide-MHC binding, purified MHC/competitive/radioactivity; filed as Kd, often an IC50 or EC50 that approximates it; bounds were set here for any values at or beyond the usual limits of such assays; settings: source organism: Dengue virus 4 Philippines/H241/1956
Overview of reported Kd across a group of sequences:
metric: Kd

{"sequence.entry": "NFLEVEDYGF", "data.value": "≥ 31700 nM"}
{"sequence.entry": "GYATQTVGPW", "data.value": "1290 nM"}

====

target: HLA-B*54:01; experiment: IEDB peptide-MHC binding, purified MHC/competitive/radioactivity; filed as Kd, often an IC50 or EC50 that approximates it; bounds were set here for any values at or beyond the usual limits of such assays; conditions: source organism: SARS coronavirus Tor2
Overview of reported Kd across a group of sequences:
metric: Kd

{"sequence.entry": "KPVDTSNSF", "data.value": "5.77 µM"}
{"sequence.entry": "WPVTLACFVL", "data.value": "3.56 µM"}
{"sequence.entry": "MPICMDVRAI", "data.value": "0.00396 µM"}
{"sequence.entry": "KPRSQMETDF", "data.value": "≥ 49.3 µM"}
{"sequence.entry": "FPQAAPHGVV", "data.value": "0.0158 µM"}

====

biological target: HLA-C*07:02; assay: IEDB peptide-MHC binding, purified MHC/direct/fluorescence; filed as Kd, often an IC50 or EC50 that approximates it; bounds were set here for any values at or beyond the usual limits of such assays; settings: source organism: Mycobacterium tuberculosis F11
pKd: −log10 of the molar value.

{"sequence.entry": "ALPPRAFEL", "system.name": "HLA-C*07:02", "pKd": 7.07}
